The entries below are paired with their reported melting point.
metric: melting point

molecule	metric	result
N#Cc1c(Cl)cc(Cl)cc1[N+](=O)[O-]	melting point	102 to 103 °C
Cc1ccc(NS(=O)(=O)c2ccc(Br)cc2)c(F)c1	melting point	111 °C
CCC(Oc1cc(C)c(Cl)c(C)c1)C(=O)NCc1cccs1 (stereo not drawn)	melting point	105 to 107 °C
COc1ccc2c(c1)-c1c(cc(C)n1C[C@@H](C)O)C2	melting point	110 °C
O=C(c1ccc([N+](=O)[O-])cc1)N1Cc2cccn2-c2ccccc21	melting point	174 to 178 °C
O=c1n(CCO)c2ccccc2n1-c1ccc(F)cc1	melting point	124 to 126 °C
CCCOC(=O)c1cncn1C(C)c1ccccc1 (stereo not drawn)	melting point	156 to 157 °C
CN1CCC[C@H](OCc2cc(C(F)(F)F)cc(C(F)(F)F)c2)[C@@H]1c1ccccc1	melting point	40 to 42 °C
c1ccc(C2CNc3ccccc3C2)cc1 (stereo not drawn)	melting point	84 to 86 °C
C1=C(/C=C/c2ccccc2)CCN(Cc2c[nH]c3ncccc23)C1	melting point	210 to 212 °C
c1ccc2c(c1)cc1n2CC2(CCNC2)C1 (stereo not drawn)	melting point	90 to 92 °C
CCOc1cccc(-c2ccc(C3=CCN(S(=O)(=O)CC(=O)OC)CC3)cc2C)c1	melting point	79 to 81 °C
C=C(C(=O)c1ccc(OC)c(OC)c1)c1ccc(F)cc1	melting point	77 to 78 °C
CCOC(=O)C[C@@H]1C(=O)N(S(=O)(=O)c2ccc(OC)cc2)C=C[C@@H]1c1ccco1	melting point	98 to 100 °C
CCCC=Cn1c2ccccc2c2ccccc21	melting point	47 °C
Cc1ccc2c(c1)CC(=O)N2	melting point	168 °C
CCCC(O)C1(CCC)c2ccccc2-c2ccccc21 (stereo not drawn)	melting point	83 to 85 °C
CN1C(=O)c2c(F)c(F)c(F)c(F)c2C1=O	melting point	132 °C
Cc1nc2c(N)nc3cccnc3c2n1CC1(O)CCN(C(=O)N2CCOCC2)CC1	melting point	245 to 248 °C
O=C(O)CCCCCOc1ccccc1OCc1ccccc1	melting point	77 to 78 °C
C=CCNC(=NC#N)Nc1ccc(C2=NNC(=O)CC2C)cc1 (stereo not drawn)	melting point	224 to 226 °C
CC(C)C(C)C=CC(C)C1CCC2C3=CC=C4CC(O)C=CC4(C)C3CCC21C (stereo not drawn)	melting point	156 to 157 °C
CC(Cl)C(=O)NOCc1ccccc1 (stereo not drawn)	melting point	70.1 to 72.8 °C

====

This listing pairs compounds with measured melting point.
metric: melting point

compound	result
Cc1ccccc1S(=O)(=O)NC1CCc2sc(C3=NNC(=O)CC3)cc2C1 (stereo not given)	204 to 206 °C
COc1ccccc1C1(O)C(O)CC(c2ccccc2)(c2ccccc2)C2CN(Cc3ccccc3)CC21 (stereo not given)	236 °C
CCOC(=O)C(=O)Nc1ccc(NC(=O)C(=O)OCC)c(C#N)c1	140 to 141 °C
NS(=O)(=O)c1cccc(NC(=O)c2cnn3c(C(F)F)cc(-c4ccc(C(F)(F)F)c(F)c4)nc23)c1	262 °C
COc1cc(-c2nn(C)c(C(F)(F)F)c2Br)c(F)cc1N	85 to 86 °C
CCOC(=O)C(=NO)c1ccc(Br)cc1	163 to 164 °C
CCOC(=O)c1c(C)nc(Cl)c([N+](=O)[O-])c1NCCCN(C)C	20 °C
CCc1cc(O)n2nc(CC)c(C)c2n1	287 °C
O=C(O)c1cn(-c2ccc(F)c([N+](=O)[O-])c2)c2nc(Cl)c(F)cc2c1=O	> 270 °C
O=S(=O)(Nc1ccc(F)cc1C(=NOc1ccc(Cl)cc1)c1ccccc1)C(F)(F)F	90 to 93 °C
CC(C)(C)c1cc(CCc2ccccc2NC(=O)N2CCN(c3ccccc3)CC2)cc(C(C)(C)C)c1O	155 to 156 °C
C#CC1N(C(=O)Oc2ccccc2)c2ccc(OCc3ccccc3[N+](=O)[O-])cc2C23OC12CCCC3O (stereo not given)	207 to 209 °C
Cc1cccc(-c2n[nH]cc2-c2ccc(F)c(-c3ccc(S(=O)(=O)C(F)(F)F)cc3)c2)n1	81 to 84 °C
COc1ccc(C2(c3ccc(OC)cc3)CCN(CC[C@@H]3C=C4c5cccc6[nH]cc(c56)C[C@H]4N(C)C3)CC2)cc1	184 to 187 °C
CCn1ncc(C(=O)c2ccc(S(C)(=O)=O)c(OCCOC)c2Cl)c1O	159 to 160 °C
O=C(O)c1cc2cccnc2nc1C(=O)O	199 to 202 °C
O=C1OC2CCSC2Cn2cccc21 (stereo not given)	167 to 168 °C
CC(C)(C)OC(=O)N[C@@H]1CCC(=O)OC1=O	117 to 119 °C
O=C1C(=C2C=Cc3ccccc3C2)CCCC1=C1C=Cc2ccccc2C1	176 °C
CC(=O)OC1CSC(Oc2cncc(F)c2)C(OC(C)=O)C1OC(C)=O (stereo not given)	143 °C
